- ASSAY_INFO: Acute toxicity in Rattus norvegicus (rat)
- Assay type: organism-based
- TEST_CONDITIONS: in vivo
MEASURED_PROPERTY: LD50 (mg/kg)
Kindly answer with a numeric value in mg/kg, unit omitted.

Consider the worked cases shown below.
COMPOUND: Clc1ccc(N2C(c3ccccc3)C23C(c2ccccc2)=Nc2ccccc23)cc1 (stereo unspecified)
UNIT_ABBREV: mg/kg
REPORTED: 4240
//
COMPOUND: Oc1cccc(N2C(c3ccccc3)C23C(c2ccccc2)=Nc2ccccc23)c1 (stereo unspecified)
UNIT_ABBREV: mg/kg
REPORTED: 5080

(Q) Can you share its LD50? I mean this compound: CCOc1cccc(N2C(c3ccccc3)C23C(c2ccccc2)=Nc2ccccc23)c1 (stereo unspecified)
(A) 4640

(Q) Can you share its LD50? I mean this compound: Oc1ccccc1N1C(c2ccccc2)C12C(c1ccccc1)=Nc1ccccc12 (stereo unspecified)
(A) 4360

(Q) Can you share its LD50? I mean this compound: Oc1ccc(N2C(c3ccccc3)C23C(c2ccccc2)=Nc2ccccc23)cc1 (stereo unspecified)
(A) 4480

(Q) Can you share its LD50? I mean this compound: O=[N+]([O-])c1ccc(N2C(c3ccccc3)C23C(c2ccccc2)=Nc2ccccc23)cc1 (stereo unspecified)
(A) 5380

(Q) Can you share its LD50? I mean this compound: O=[N+]([O-])c1ccccc1N1C(c2ccccc2)C12C(c1ccccc1)=Nc1ccccc12 (stereo unspecified)
(A) 3560

(Q) Can you share its LD50? I mean this compound: CCOc1ccccc1N1C(c2ccccc2)C12C(c1ccccc1)=Nc1ccccc12 (stereo unspecified)
(A) 4820

(Q) Can you share its LD50? I mean this compound: Cc1cccc(N2C(c3ccccc3)C23C(c2ccccc2)=Nc2ccccc23)c1 (stereo unspecified)
(A) 3840

(Q) Can you share its LD50? I mean this compound: c1ccc(C2=Nc3ccccc3C23C(c2ccccc2)N3c2ccccc2)cc1 (stereo unspecified)
(A) 4240

(Q) Can you share its LD50? I mean this compound: COc1cccc(N2C(c3ccccc3)C23C(c2ccccc2)=Nc2ccccc23)c1 (stereo unspecified)
(A) 5120

(Q) Can you share its LD50? I mean this compound: Clc1cccc(N2C(c3ccccc3)C23C(c2ccccc2)=Nc2ccccc23)c1 (stereo unspecified)
(A) 4380

(Q) Can you share its LD50? I mean this compound: O=C(O)c1ccccc1N1C(c2ccccc2)C12C(c1ccccc1)=Nc1ccccc12 (stereo unspecified)
(A) 3840
